protocol-notes: E. coli acrAB mutant growth effects, primary screen, E. coli filamentation inducers, strain DRC39, OD650, 24 h (AID 1178);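 also: growth measured as culture turbidity by optical density at 650 nm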
measurement-conditions: higher = more signal, called active from +8 up or from −8 down
value-type: z-score
// keep it numeric: no unit symbol after the value

As a guide, the following entries are already answered.
For the compound O=C(OCCF)C1=CCC(c2cccc(Cl)c2)O1 (centres undefined) , what z-score is on record?
-0.18

What about CN1C=C(C(=O)OCCS(C)(=O)=O)C(C(=O)OCCS(C)(=O)=O)=CC(CCCO)=CC1C1CC1 (centres undefined) ?
1.38

Next compound up: CC(=CC1CCCCC1)[C@@H](NC(=O)c1ccc(C(F)(F)F)cc1)c1ccc(-c2ccccc2)cc1
-1.16

Same thing, different compound: O=C1O[C@H](c2ccccc2)[C@H](c2ccccc2)N2[C@H]1[C@@H](C(=O)O)[C@]1(C(=O)Nc3ccc(C#CC4=CCCCC4)cc31)[C@H]2c1ccc(OCCO)cc1
0.668

Same question, CCOC(=O)C[C@H]1[C@H](OC(=O)c2ccc(-c3ccccc3)cc2)[C@@H](NC(=O)c2ccc3ccccc3c2)c2cc(OCCCO)ccc2N1C(=O)Cc1ccc(OC)cc1 this time
0.281

Then CCCCC=C[C@@H](NC(=O)c1cccs1)c1ccccc1 ?
0.659

Another: Cc1ccc(S[C@]2(C(=O)NCc3ccccc3)CC(=O)N(Cc3ccccc3Cl)[C@@H]2c2ccc(CO)cc2I)cc1
0.321

For COC(=O)c1c(CC[C@@H](CO)NC(=O)N[C@@H](Cc2ccccc2)Cn2cc(C3(O)CCCCC3)nn2)oc(C(C)=O)c1C(=O)OC then?
1.05

C[N+](C)(C)CCCCCCNC(=O)[C@H]1C[C@H]2C(=O)N3CCC[C@H]3C(=O)N2[C@H]1c1ccc(O)cc1 , same question.
-0.834

Field entry: O=C1OCC=C[C@H]2OC34C=CCN(c5ccc6ccccc6c5)C(=O)[C@H]3N(CCCO)C(=O)[C@@H]4[C@@H]12 (some centres undefined)
-0.265

---
Using the record for COCCOC(=O)N1C(=O)[C@@]2(c3cc(C#CCNC(N)=O)ccc31)[C@H](c1ccccc1OCCO)N1[C@H](c3ccccc3)[C@H](c3ccccc3)OC(=O)[C@H]1[C@@H]2C(N)=O , report its z-score.
-0.144

Same lookup for COC(=O)[C@@]1(Cc2ccc(OC)cc2)[C@H]2c3cc(C(=O)N4CCCC4)n(Cc4ccccn4)c3C[C@H]2CN1C(=O)c1ccccc1 , please.
-0.564

// repeat for O=C1C=CC(=O)[C@@H]2CC(COc3ccccc3)=C3[C@@H](CCc4ccccc4)OB(O)C[C@@H]3[C@H]12 and report
-0.569

Input COCCOC(=O)N1C(=O)[C@@]2(c3cc(C#CC4=CCCCC4)ccc31)[C@H](C(=O)NC[C@H](O)c1ccccc1)[C@H]1C(=O)O[C@H](c3ccccc3)[C@H](c3ccccc3)N1[C@@H]2c1ccc(O)cc1
-0.237

---

System: XIP peptide (Xip251-270) binding
protocol-notes: small-molecule binders of XIP peptide, primary screen, biochemical, small-molecule microarray, fluorescence 635/667 nm, 0.1 µg/mL protein (AID 1182)
measurement-conditions: fluorescent protein binding, 635 nm, higher = more signal, called active from +8 up or from −8 down
value-type: composite z-score
Respond using a number only.

Examples with answers:
For COCCOC(=O)N1C(=O)[C@@]2(c3cc(C#CC4=CCCCC4)ccc31)[C@H](C(=O)NC[C@H](O)c1ccccc1)[C@H]1C(=O)O[C@H](c3ccccc3)[C@H](c3ccccc3)N1[C@@H]2c1ccc(O)cc1 , what is its reported composite z-score?
0.304

Query COC(=O)[C@@]1(Cc2ccccc2)[C@H]2c3cc(C(=O)N4CCCC4)n(C)c3C[C@H]2CN1C(=O)c1ccccc1 next
-0.0625

Try this compound next: COCCOC(=O)N1C(=O)[C@@]2(c3cc(C#CCCO)ccc31)[C@H](c1ccc(O)cc1)N1[C@H](c3ccccc3)[C@H](c3ccccc3)OC(=O)[C@H]1[C@@H]2C(N)=O
0.599

How about C=CC[C@@]1(C(=O)NCC(O)CO)N=C(c2ccc(OCCCO)cc2)O[C@@H]1c1ccccc1N=[N+]=[N-] (stereo partly drawn) ?
1.06

Ok, now COCCOC(=O)N1C(=O)[C@@]2(c3ccccc31)[C@H](C(=O)Nc1nc3ccccc3s1)[C@H]1C(=O)O[C@H](c3ccccc3)[C@H](c3ccccc3)N1[C@@H]2c1ccc(OCCO)cc1
0.886

Ok, now C=CCNC(=O)[C@H]1[C@@H]2C(=O)O[C@@H](c3ccccc3)[C@@H](c3ccccc3)N2[C@@H](c2ccc(O)cc2)[C@]12C(=O)N(C(=O)OCCOC)c1ccc(C#CCCO)cc12
0.855

What do you have for CC(=O)C1=CCC(c2ccccc2)N(S(=O)(=O)c2ccc(C)cc2)C1 (stereo not drawn) ?
0.651

Would you mind doing COC(=O)c1ccc(C23CC2(C(NP(=O)(c2ccccc2)c2ccccc2)c2ccccc2)C3)cc1 (stereo not drawn) as well?
0.946

Let us move to another entry and its composite z-score.
Look at this compound and give its reported composite z-score. C=CCC(OC(C)=O)[C@@H]1[C@@H](N(Cc2cccc3ccccc23)C(=O)c2ccc(C)cc2)c2cc(OCCCO)ccc2N1C(=O)Cc1ccc(OC)cc1 (stereo partly drawn)
-0.262

---

protocol-notes: adipocyte viability effects, profiling panel, cell-based, 3T3-L1 adipocytes, calcein-AM fluorescence, 48 h, basal (AID 1163)
measurement-conditions: 3T3-L1 adipocytes viability, higher = more signal
value-type: z-score
Write no unit; give the number alone.

Would you please look over these solved cases?
Need z-score of COc1cc2c(cc1OC)CN(C(=O)[C@@H]1[C@H]3C(=O)O[C@H](c4ccccc4)[C@H](c4ccccc4)N3[C@H](c3ccccc3OCCO)[C@@]13C(=O)Nc1ccc(C#CCNC(N)=O)cc13)CC2 , thanks.
1.62

And then [N-]=[N+]=NCc1ccccc1C[C@]1(C(=O)O)N=C(c2ccc(OCCCO)cc2)O[C@H]1c1ccccc1CN=[N+]=[N-] , what is it?
0.368

# iterate: O=C1OCCC=C[C@H]2OC34C=CCN(Cc5ccccc5)C(=O)[C@H]3N(CCCCCO)C(=O)[C@@H]4C12 (stereo partly specified)
-0.0568

One more compound: COC(=O)[C@@]1(Cc2ccc(OC)cc2)[C@H]2c3cc(C(=O)N4CCCC4)n(Cc4cc(F)cc5c4OCOC5)c3C[C@H]2CN1C(=O)c1ccccc1
-0.151

Others:
Need z-score, item CCOC(=O)C[C@H]1[C@H](OC(=O)c2ccc(-c3ccccc3)cc2)[C@@H](NC(=O)c2ccc(-c3ccccc3)cc2)c2cc(OCCCO)ccc2N1C(=O)Cc1ccc(OC)cc1
0.485

Same read-out for O=C1O[C@@H](c2ccccc2)[C@@H](c2ccccc2)N2[C@@H](c3ccc(OCCO)cc3)[C@]3(C(=O)Nc4ccccc43)[C@@H](C(=O)Nc3nc4ccccc4s3)[C@H]12 ?
-0.343

---

assay-target: Neurogenic locus notch homolog protein 3 (Homo sapiens)
protocol-notes: NOTCH3 binders on small-molecule microarray, primary screen, biochemical, 635/667 nm fluorescence (AID 1096)
measurement-conditions: NOTCH3 binding, 635 nm fluorescence, higher = more signal
Classify by composite z-score. Ranges: Low = under -0.04, Medium = from -0.04 up to 0.9, High = 0.9 and over

Example results:
Record CCCC[C@@H]1C[C@H]1[C@@H](NC(=O)c1ccc(-c2ccccc2)cc1)c1ccc(-c2ccccc2)cc1 — which class?
High

What would you report for CCOC(=O)C[C@H]1[C@H](OC(=O)c2ccc(-c3ccccc3)cc2)[C@@H](NC(=O)c2ccc3ccccc3c2)c2cc(OCCCO)ccc2N1C(=O)Cc1ccc(OC)cc1 ?
Low

Continuing:
# bin lookup: classify CCOC(=O)[C@H]1C[C@H]2O[C@@]23C[C@H]1C(=O)N1CCCC1[C@@H]3O[Si](C)(C)C(C)(C)C (some centres undefined) by its composite z-score
Low

Can you handle C[C@H]1NC(=O)[C@H](Cc2ccccc2)NC(=O)[C@@]23C(=O)N[C@@H](Cc4ccccc4)C2[C@H](C)[C@@]2(C)O[C@H]2C3/C=C/C/C=C\CNC1=O (some centres undefined) next?
Low

Input CCCCC=C[C@@H](NC(=O)c1cccs1)c1ccccc1
High

---

assay-target: Luciferin 4-monooxygenase (Photinus pyralis)
protocol-notes: firefly luciferase enzyme inhibitors, primary screen, biochemical, luminescence, purified enzyme, 2006 set (AID 1141);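 also: cell-free assay with purified firefly luciferase at 100 ng per well in PBS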
measurement-conditions: SteadyGlo luminescence, 30 min, higher = more signal, called active from +8 up or from −8 down
value-type: z-score
Keep the answer to the number alone.

As a guide, the following entries are already answered.
For the compound shown here, COC(=O)[C@@]1(Cc2ccccc2)[C@H]2c3cc(C(=O)N4CCCC4)n(C)c3C[C@H]2CN1C(=O)c1ccccc1 , give the reported z-score.
0.271

Also, COC(=O)[C@]1(Cc2ccccc2N=[N+]=[N-])N=C(c2ccc(OCCCO)cc2)O[C@@H]1c1ccccc1N=[N+]=[N-] please.
-1.42

Can you handle COc1ccc(CCNC(=O)[C@@]2(Sc3ccc(C)cc3)CC(=O)N(Cc3ccccc3Cl)[C@@H]2c2ccc(CO)cc2I)cc1 next?
0.674

Item: COc1ccc(C(O)C2C=CC3C(=O)NC(=O)C3N2Nc2ccccn2)cc1OCc1ccccc1 (configuration not stated)
0.24

Same read-out for CC(=O)Nc1cc(Br)ccc1C(=O)O ?
-0.592

Try this compound too: COCCOC(=O)N1C(=O)[C@@]2(c3ccccc31)[C@H](C(=O)NC[C@H](O)c1ccccc1)[C@H]1C(=O)O[C@H](c3ccccc3)[C@H](c3ccccc3)N1[C@@H]2c1ccc(OCCO)cc1
0.888

Attention now turns to another entry.
I am curious: what z-score value has been reported for COc1ccc([Si](C)(C)[C@H]2[C@H](CCn3cc([C@H](O)c4ccccc4)nn3)O[C@@]3(C(=O)N(Cc4cccc(N5CCC5=O)c4)c4ccccc43)[C@@H]2C)cc1 ?
-0.719
